Hey, just so you know, these numbers are from PubChem BioAssay (NCI).

I'd appreciate it if you could supply growth inhibition values for the items below.
- assay_notes: NCI Yeast Anticancer Drug Screen. Data for the cln2 rad14 strain (AID 165);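 also: 0% = growth equal to vehicle treated cultures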
- conditions_used: S. cerevisiae cln2 rad14 strain, at 50.0 µM (retest, dose inferred, filed as 5.0), hits give high values
About 79,000 compounds went through this panel and 15% of them were active in at least one assay; those are over-represented in the sample as a whole.
Express your answer in %, writing the number without its unit.

Determine its reported growth inhibition: C[C@]12CCC(O)CC1=CC[C@@H]1[C@@H]2CC[C@]2(C)C(=O)[C@H](n3ccnc3)C[C@@H]12 (stereo partly drawn) 51

Determine its reported growth inhibition: CC(=O)NC1C(O[C@H]2CC[C@@]3(C)C(CC[C@]4(C)C3CC=C3C5CC(C)(C)CC[C@]5(C(=O)O)CCC34C)C2(C)C)OC(CO)C(O)C1O (stereo partly drawn) 99

Determine its reported growth inhibition: [C-]#[O+].[Cl][Sn]([Cl])[Cl].[Cl][Sn]([Cl])[Cl].[Pt].c1ccncc1 78

Determine its reported growth inhibition: Cc1cc[n+](C2C(=O)c3ccccc3C(=O)C2Nc2cc(Cl)ccc2Cl)cc1 (stereo not drawn) 95

Determine its reported growth inhibition: CN(CCCl)c1ccc(/C=C/C2=[N+](C)c3ccccc3C2(C)C)cc1 98

Determine its reported growth inhibition: CCC1(O)C(=O)OCc2c1cc1n(c2=O)Cc2cc3cc(C)ccc3nc2-1 (stereo not drawn) -4

Determine its reported growth inhibition: N#CC1CC[CH-]CC1.[Cl-].[Cl-].[Cl-].[Cl-].[Cl-].[Sb+5].c1ccncc1 99

Determine its reported growth inhibition: CC(c1ccccc1)N1O[C@]12CC[C@@]1(C)C(CCCC13OCCO3)C2 (stereo partly drawn) 98

====

I'd appreciate it if you could supply growth inhibition values for the items below.
- assay_notes: NCI Yeast Anticancer Drug Screen. Data for the rad50 strain (AID 155);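 also: 0% = growth of vehicle-only cultures of the same strain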
- conditions_used: S. cerevisiae rad50 strain growth inhibition; at 50.0 µM (retest, dose inferred, filed as 5.0); hits give high values
About 79,000 compounds went through this panel and 15% of them were active in at least one assay; those are over-represented in the sample as a whole.
Express your answer in %, writing the number without its unit.

Determine its reported growth inhibition: CC[C@@H]1C(=O)OC[C@@H]1Cc1cncn1C -8

Determine its reported growth inhibition: O=C1C(C(Nc2ccccc2)c2ccccc2)=C([O-])c2ccccc21.O=C1C(C(Nc2ccccc2)c2ccccc2)=C([O-])c2ccccc21.[Co+2] (stereo not given) 61

Determine its reported growth inhibition: O=C(CBr)OCCBr 99

Determine its reported growth inhibition: C[CH2][Sn]([Br])([CH2]C)[c]1ccccc1CN(C)C 76

Determine its reported growth inhibition: CCOC(=O)NP(=O)(NNc1ccccc1)NNc1ccccc1 98

Determine its reported growth inhibition: CC(C)=CCC/C(C)=C/CC/C(C)=C/Cc1c(O)c2ccccc2oc1=O 94

Determine its reported growth inhibition: CC1Oc2cc3c(-c4c(O)cc(O)c5c(O)c6c(cc45)OC(C)C(C)C6=O)c(O)cc(O)c3c(O)c2C(=O)C1C (stereo not given) 85

Determine its reported growth inhibition: Oc1c(I)cc(I)cc1I 91

Determine its reported growth inhibition: CC1=C(CC/C(C)=C/CCC2(C)CCC([C@H](C)C(=O)O)OO2)C(C)(C)CCC1 (stereo not given in full) (tested in a mixture with another compound) 97

Determine its reported growth inhibition: COC12c3c(C)cc(O)c4c(=O)occ(c34)C(=O)C1C13COC(=O)c4c(O)cc(C)c(c41)C(=O)C2C3OC(C)=O (stereo not given) 99

====

- assay_notes: NCI Yeast Anticancer Drug Screen. Data for the bub3 strain (AID 167)
- conditions_used: S. cerevisiae bub3 mutant strain, at 50.0 µM (retest, dose inferred, filed as 5.0)
- Procedure: Growth inhibition of yeast strains with defined genetic alterations is measured as a screen for potential anti-cancer activity. Selected strains with alterations in DNA damage repair or cell cycle control were exposed to compounds and growth inhibition was measured relative to vehicle treated controls. The strain used in this assay is bub3
This is part of a sample that, as a whole, favours compounds with a hit. Of some 79,000 tested, about 15% had one in any assay. The source made the active and inactive calls. Rule as the data show it: active = growth inhibition above about 70%; inactive = the rest.
Give your call using only these classes: active, inactive

Called result for N#Cc1cc([N+](=O)[O-])c(Cl)c([N+](=O)[O-])c1 active

Called result for CN(C)c1ccc(C(c2c(O)c3ccccc3oc2=O)c2c(O)c3ccccc3oc2=O)cc1 inactive

Called result for O=P1(N2CCOCC2)OC(c2ccccc2)=CCN1c1ccccc1 (stereo not given) inactive

Called result for Cc1ccc(S(=O)(=O)N=S(=O)(CCCl)CCCl)cc1 active

Called result for NC(=S)C1=C(N)Oc2c(c(=O)oc3ccccc23)C1c1ccc(Br)cc1 (stereo not given) active

Called result for O=C1c2ccccc2CCC1Br (stereo not given) active

Called result for c1cc2n[pH]nc2cn1 (stereo not given) inactive

Called result for CN1C(=O)C23CC4=CC=CC(O)C4N2C(=O)C1(CO)SS3 (stereo not given) active

Called result for CC(CCc1ccccc1)NC(C)C(O)c1ccc(O)cc1 (stereo not given) inactive

Called result for NC(=O)c1cc([N+](=O)[O-])c(Cl)c([N+](=O)[O-])c1Cl active

====

- assay_notes: NCI Yeast Anticancer Drug Screen. Data for the bub3 strain (AID 167)
- conditions_used: S. cerevisiae bub3 mutant strain, at 5.0 µM (retest, dose inferred, filed as 0.5)
The panel holds about 79,000 compounds, 15% with a hit somewhere; the sample as a whole holds those more often. Calls of active or inactive are those of the source. Cut-off read from the data, not from the text of the source: active = growth inhibition above about 70%; inactive = the rest.
Give your call using only these classes: active, inactive

Called result for Oc1c(Cl)cc(Cl)c2ccccc12 inactive

Called result for COc1cc(/C=C/c2ccc(OC)c(O)c2)cc(OC)c1 inactive

Called result for CCOC(=O)C1=C(C)/C(=C/c2[n-]c(C)c(C(=O)OCC)c2C)N=C1C.CCOC(=O)C1=C(C)/C(=C/c2[n-]c(C)c(C(=O)OCC)c2C)N=C1C.[Zn+2] inactive

Called result for C[CH2][Pb]([CH2]C)([CH2]C)[O]C(=O)COc1ccc(Cl)cc1Cl inactive

Called result for C[C@@H]1C[C@@H]([C@H](O)CC2CC(=O)NC(=O)C2)C(=O)[C@@H](C)C1 active

Called result for O=C1CC2CCCC(C1)N2Cc1ccccc1 inactive

Called result for CCNC(=O)OOC(C)(C)C inactive

Called result for CCC[CH2][Sn]([CH2]CCC)([N]=C=S)[N]=C=S active

Called result for COC(=O)C1=C(C(=O)OC)C2(C)OC1c1ccccc12 (centres undefined) inactive

====

- assay_notes: NCI Yeast Anticancer Drug Screen. Data for the mlh1 rad18 strain (AID 175)
- conditions_used: S. cerevisiae mlh1 rad18 strain growth inhibition; at 50.0 µM; hits give high values
Compounds without any hit were thinned out: in the full panel of roughly 79,000, 15% have a hit.
reported_metric: growth inhibition (%)
Express your answer in %, writing the number without its unit.

Determine its reported growth inhibition: CC(=O)c1ccc([As](=O)(O)O)cc1 -30.8

Determine its reported growth inhibition: CN1C(=O)N(C)P1(Cl)(Cl)Cl -14.9

Determine its reported growth inhibition: Cc1cc(C(C)(C)c2ccc(O)c(C)c2)ccc1O 99.3

Determine its reported growth inhibition: Cc1cc(N(CCCl)CCCl)ccc1CN1CCCN(Cc2ccc(N(CCCl)CCCl)cc2C)C1c1ccc(N(CCCl)CCCl)cc1 97.2

Determine its reported growth inhibition: Clc1ccc(Cl)c(Cl)c1 98.2

Determine its reported growth inhibition: CC(C)(CBr)COP1(=O)NCC(C)(C)CO1 (centres undefined) 10.8

Determine its reported growth inhibition: O=P(Nc1ccc(Cl)cc1)(Oc1ccccc1)N(CCCl)CCCl (centres undefined) 0.9

Determine its reported growth inhibition: C=C1CC/C=C(/C)C(=O)C(OC(C)=O)C2C1CC2(C)C (centres undefined) 81.4

Determine its reported growth inhibition: CCCC1NCCOC1(O)c1ccccc1 (centres undefined) -33.8

Determine its reported growth inhibition: COC(=O)C1C(=O)CC2N(C)C1C(C)(C)C2(C)C (centres undefined) 56.1

Determine its reported growth inhibition: C/C=C/CC1(c2ccccc2)C(=O)NC(=S)NC1=O 5.9

Determine its reported growth inhibition: CCOC(=O)/C(=C\c1ccc(OC)cc1)[Se]c1ccccc1 59.9

Determine its reported growth inhibition: CCCN1CCC2(CC1)COCc1ccccc12 34.8

Determine its reported growth inhibition: ClCCN1CCOCC1 98.8

Determine its reported growth inhibition: COc1ccc(C(=O)Cc2c(C(=O)c3ccccc3)c3ccccc3n2C(=O)c2ccccc2)cc1 5.75

Determine its reported growth inhibition: [Se]=[Nb]=[Se] -28.5

Determine its reported growth inhibition: CC(=O)OC1CCC2C3CCC4CC5(CCC4(C)C3CCC12C)CO5 (centres undefined) 1.2

Determine its reported growth inhibition: O=c1oc2cc(O)ccc2c(O)c1C(c1ccccn1)c1c(O)c2ccc(O)cc2oc1=O -52

Determine its reported growth inhibition: O=C1NC(=O)C2(OC3c4ccccc4C=CN3C3=C2C(=O)CCC3)C(=O)N1 (centres undefined) 7.4

Determine its reported growth inhibition: CC12CCC(=O)C=C1CCC1C2CCC2(C)C(O[Si](C)(C)OC3CCC4C5CCC6=CC(=O)CCC6(C)C5CCC34C)CCC12 (centres undefined) 96.8

Determine its reported growth inhibition: O=C(OCCOCCOC(=O)C(Cl)(Cl)Cl)C(Cl)(Cl)Cl 7.95

Determine its reported growth inhibition: [Cl][Pt][Cl].c1ccc([AsH](CC[AsH](c2ccccc2)c2ccccc2)c2ccccc2)cc1 99.2

Determine its reported growth inhibition: O=[N+]([O-])c1cccc2c([N+](=O)[O-])cccc12 0.05

Determine its reported growth inhibition: CC1C2Cc3ccc(O)cc3C1(C)CCN2CCC(=O)c1ccccc1 (centres undefined) 9.55

Determine its reported growth inhibition: CC(C)[S-].CC(C)[S-].[Pt+2].c1ccc([PH+](c2ccccc2)c2ccccc2)cc1.c1ccc([PH+](c2ccccc2)c2ccccc2)cc1 95.7

Determine its reported growth inhibition: O=C1C(=O)C(Br)(Br)C(Br)=C1Br 96.8

Determine its reported growth inhibition: CCCC(C)(COC(N)=O)COC(=O)NC1CC1 (centres undefined) -2

Determine its reported growth inhibition: CN(C)c1ncnc2c1ncn2C1OC(CO)C2NP(=O)(N(CCCl)CCCl)OC21 (centres undefined) 28.4

Determine its reported growth inhibition: CCCCCCNC(=O)CCl -9.15
